molecular target: full-length polo-like kinase 1 (Plk1) (UniProt P53350 1-603); assay: ELISA
Sequence (P53350 whole entry): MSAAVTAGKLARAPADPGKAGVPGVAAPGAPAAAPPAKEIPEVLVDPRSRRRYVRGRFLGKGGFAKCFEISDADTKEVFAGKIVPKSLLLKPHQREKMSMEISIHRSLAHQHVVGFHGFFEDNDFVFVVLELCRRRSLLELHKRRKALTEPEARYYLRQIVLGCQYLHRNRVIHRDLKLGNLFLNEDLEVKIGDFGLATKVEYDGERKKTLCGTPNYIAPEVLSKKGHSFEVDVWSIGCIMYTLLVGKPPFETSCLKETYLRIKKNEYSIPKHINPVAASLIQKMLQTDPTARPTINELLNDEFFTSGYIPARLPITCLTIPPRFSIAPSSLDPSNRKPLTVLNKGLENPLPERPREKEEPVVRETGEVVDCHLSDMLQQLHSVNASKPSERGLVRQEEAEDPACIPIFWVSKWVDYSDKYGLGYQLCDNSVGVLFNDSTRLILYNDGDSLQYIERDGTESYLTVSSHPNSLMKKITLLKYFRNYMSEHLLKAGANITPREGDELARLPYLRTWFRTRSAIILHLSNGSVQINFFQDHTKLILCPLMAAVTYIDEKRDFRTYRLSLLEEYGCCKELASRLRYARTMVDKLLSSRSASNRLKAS
Square brackets hold non-standard residues; d marks the D form. Ends that are not written are not given here. His(π-(CH2)8Ph) = N[C@@H](Cc1cncn1CCCCCCCCc1ccccc1)C(=O)O; pT = C[C@@H](OP(=O)(O)O)[C@H](N)C(=O)O
measure: IC50 (nM)
Please reply with the bare figure in nM and do not write the unit itself.

Query string: # query: IC50 of entry PL[His(π-(CH2)8Ph)]S[pT] [PLH*SpT (2a)]
Result string: 181

Data provenance: paper PMC5573662
